FYI, the data here is from paper PMC7240809.

- test.summary: Biodistribution in C57BL/6J mice bearing B16–F10 melanoma
- Type: in vivo
- condition.parameters: C57BL/6J, mouse, tumor and liver, iv, total radioactivity
readout.name: tissue to tissue ratio at 2 h
The answer should be written as a number, with no unit following it.

Input: Determine from records and report tissue to tissue ratio at 2 h for CCCC[C@H](NC(=O)CN1CCC(NC(=O)CN2CCN(CC(=O)O)CCN(CC(=O)O)CCN(CC(=O)O)CC2)CC1)C(=O)N[C@H]1CC(=O)NCCCC[C@@H](C(N)=O)N(C)C(=O)[C@H](Cc2c[nH]c3ccccc23)N(C)C(=O)[C@H](CCCNC(=N)N)N(C)C(=O)[C@@H](Cc2ccccc2)NC(=O)[C@H](Cc2cnc[nH]2)N(C)C1=O [[^68Ga]Ga-CCZ01099, metal not drawn]
Output: 11.8

* * *

- test.summary: Biodistribution in C57BL/6J mice bearing B16–F10 melanoma
- Type: in vivo
- condition.parameters: C57BL/6J, mouse, heart, intravenous, total radioactivity
readout.name: tissue uptake at 1 h (%ID/g)
# value in %ID/g; strip the unit string

Input: Determine from records and report tissue uptake at 1 h for CCCC[C@H](NC(=O)CN1CCC(NC(=O)CN2CCN(CC(=O)O)CCN(CC(=O)O)CCN(CC(=O)O)CC2)CC1)C(=O)N[C@H]1CC(=O)NCCCC[C@@H](C(N)=O)N(C)C(=O)[C@H](Cc2c[nH]c3ccccc23)N(C)C(=O)[C@H](CCCNC(=N)N)N(C)C(=O)[C@@H](Cc2ccccc2)NC(=O)[C@H](Cc2cnc[nH]2)N(C)C1=O [[^68Ga]Ga-CCZ01099, metal not drawn]
Output: 0.24

* * *

- test.summary: Biodistribution in C57BL/6J mice bearing B16–F10 melanoma
- Format: in vivo
- condition.parameters: C57BL/6J, mouse, muscle, intravenous, total radioactivity
readout.name: tissue uptake at 1 h (%ID/g)
# value in %ID/g; strip the unit string

Input: Determine from records and report tissue uptake at 1 h for CCCC[C@H](NC(=O)CN1CCC(NC(=O)CN2CCN(CC(=O)O)CCN(CC(=O)O)CCN(CC(=O)O)CC2)CC1)C(=O)N[C@H]1CC(=O)NCCCC[C@@H](C(N)=O)N(C)C(=O)[C@H](Cc2c[nH]c3ccccc23)N(C)C(=O)[C@H](CCCNC(=N)N)N(C)C(=O)[C@@H](Cc2ccccc2)NC(=O)[C@H](Cc2cnc[nH]2)N(C)C1=O [[^68Ga]Ga-CCZ01099, metal not drawn]
Output: 0.16

* * *

- test.summary: Biodistribution in C57BL/6J mice bearing B16–F10 melanoma
- Type: in vivo
- condition.parameters: C57BL/6J, mouse, bone, intravenous, total radioactivity
readout.name: tissue uptake at 1 h (%ID/g)
# value in %ID/g; strip the unit string

Input: Determine from records and report tissue uptake at 1 h for CCCC[C@H](NC(=O)CN1CCC(NC(=O)CN2CCN(CC(=O)O)CCN(CC(=O)O)CCN(CC(=O)O)CC2)CC1)C(=O)N[C@H]1CC(=O)NCCCC[C@@H](C(N)=O)N(C)C(=O)[C@H](Cc2c[nH]c3ccccc23)N(C)C(=O)[C@H](CCCNC(=N)N)N(C)C(=O)[C@@H](Cc2ccccc2)NC(=O)[C@H](Cc2cnc[nH]2)N(C)C1=O [[^68Ga]Ga-CCZ01099, metal not drawn]
Output: 0.33
